conditions: in acetone, 323.15 K
assayEndpoint: solubility (mole fraction)

smilesStr	result
O=C1OC(=O)c2c(Cl)cccc21	0.357
O=C1OC(=O)c2cc(Cl)ccc21	0.522

====

conditions: in 1,4-dioxane, 308.15 K
Quick reference: solubility (mole fraction) of the listed items.

smilesStr	solubility (mole fraction)
O=C1OC(=O)c2cc(Cl)ccc21	0.205
O=C1OC(=O)c2c(Cl)cccc21	0.367

====

conditions: in water, 298.15 K

smilesStr	solubility (mole fraction)
O=C(O)c1ccc(Cl)cc1C(=O)O	0.125
O=C(O)c1cccc(Cl)c1C(=O)O	0.00281

====

Each entry below carries its reported solubility (mole fraction).
details: in water, 333.15 K

smilesStr	solubility (mole fraction)
O=C(O)c1ccc(Cl)cc1C(=O)O	0.349
O=C(O)c1cccc(Cl)c1C(=O)O	0.0056
